Entry source: paper PMC12864922

Here, each record is paired with measured binding signal data.
# Target under test: TDP-43 (Homo sapiens, UniProt Q13148 1-414)
# Sequence (Q13148 whole entry): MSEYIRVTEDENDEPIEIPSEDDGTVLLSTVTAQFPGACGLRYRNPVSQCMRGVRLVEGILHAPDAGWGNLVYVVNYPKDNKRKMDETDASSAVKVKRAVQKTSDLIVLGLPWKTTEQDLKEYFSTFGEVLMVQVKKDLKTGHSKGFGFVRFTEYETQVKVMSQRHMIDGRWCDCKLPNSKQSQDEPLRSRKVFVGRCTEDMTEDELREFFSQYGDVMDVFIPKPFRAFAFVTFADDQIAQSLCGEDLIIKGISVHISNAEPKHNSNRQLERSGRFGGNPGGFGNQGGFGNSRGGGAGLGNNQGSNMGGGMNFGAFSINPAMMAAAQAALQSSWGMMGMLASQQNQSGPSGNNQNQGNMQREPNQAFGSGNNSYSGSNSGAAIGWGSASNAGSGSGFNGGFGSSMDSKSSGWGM
# Assay remarks: RNA Bind-n-Seq with designed 260-mer pool; 25 mM Tris-HCl, 150 mM KCl, 3 mM MgCl2, BSA (printed 500 mg/mL), 20 units/mL SUPERase IN; pH not stated; 500 nM RNA pool, 1 h, 4 C; TDP-43 5, 50, 500 nM; high values mean tight binding
# Experimental conditions: protein: recombinant; tags: SBP (GST cleaved off with PreScission; pGEX-GST-SBP)
Over roughly 9,900 sequences, “r (bound/input frequency ratio)” has its median near 0.7; the highest 2% begin near 6.5. This is one part of a sample in which the highest values are shown more often than they occur.
Assay readout: binding signal

ENSMUSG00000004113.301|Cacna1b (ssRNA) RNA: GGGAGUUCUACAGUCCGACGAUCGCUUCGAUAUCCGCAUGCUAAGGCACUCCUUGGUGUGGUCUCUCUGUUUUGAAACUUCUGAUGACUUCUUGGUGGCUUGUUGUCUUCUACCCCAUGUUUCUCACAGGAUCUGUGUGUGUGUGUGUGUGUGUGUGUGUGUGUGUGUGUGUGUGUGUUAGCAUGUGUGUAUUAGCGUGUGUGAGUGUGUGAGCAUGCACGAGUCAUAGGAGAUGCAGGUGUAUGUGUGUGGUGUGCAUAUGUGUAUGUGUGUGUGUGUGUGUGUGUGUGUAGGUGUGUUCAGCUCUUGCGGUCGCACUAGUGUGGAAUUCUCGGGUGUCAAGG ... 5.79 R (bound/input frequency ratio)
ENSMUSG00000061578.1192|Ksr2 (ssRNA) RNA: GGGAGUUCUACAGUCCGACGAUCGCUUCGAUAUCCGCAUGCUAUGUCUGCUUUUGUUUCUCCACCAUGCCCCCUGCCACCUCUUCUGACAGUGCUCAGAUUUAUCAGCCACCUGACCCACAGACCCAUAUGGACACACUAGAAAGCCCAUCCUAGGUCUUUCCAUGGUCUCUCACACCCCUGUCCCCGUCCCCUCCACCCCCCGGCAGCAUGCUUCACUCUAUGAAUGAGCCGCUGGGAUAUUGACAUGGAGAUGUGUUGAUGGAAAAAGCCUCCACACCCAACAUAACUCUCCAGAGAGAUACUCUUGCGGUCGCACUAGUGUGGAAUUCUCGGGUGUCAAGG ... 1.3 R (bound/input frequency ratio)
ENSMUSG00000028439.8|Fam219a|14:18;220:226 (ssRNA) RNA: GGGAGUUCUACAGUCCGACGAUCGCUUCGAUAUCCGCAUGCUAAACCCCACCUGCAACACAUGUCAGGCCACUUCCUCCACCGCCUGCCACAUUCAGUAGUGGGCGGGGUCGCCGCGGUGCACGGGGCGCUGACCUGGGCCCGGUGGGAUGCAGCAGGAGAGACCCCUACCCUGCUGGUCCACUGGUCCCCAGCCCCGCGCCUCUUAGAGCCGCCAACCUCGUAACAGUCAUUGCUUCCUCCUAUGGUAGGACGUGUACCUCACACACAUCAAGGAGCCGGAGAAACCAAAACCGGGUCUGUCCUCUUGCGGUCGCACUAGUGUGGAAUUCUCGGGUGUCAAGG ... 0.367 R (bound/input frequency ratio)
ENSMUSG00000031028.129|Tub|126:130;202:207 (ssRNA) RNA: GGGAGUUCUACAGUCCGACGAUCGCUUCGAUAUCCGCAUGCUACCAAAUAUCUGAGUGGAUGGGGAUGAUAGGAGUCAUCCAGUAGACUCCCUACAUCAGGGCUCUCAGCAGCCCCAGCACAACACCUAUGACACACACACAGGAUCUAGGUCACCAUUCAAGUAAUGCAUACCUUCAGGAAGAAUGUCCUCUCUGGGAAGACUCAGCUCCCAUUAUUGCCAGCAUGCCAUGAUCAGUGAGGGCACACACCCAUGCUUAGGGGGAUGGCGCAGGGUGAGGGGAGCAGAGGAUAUUUUAGGGCCCUCUUGCGGUCGCACUAGUGUGGAAUUCUCGGGUGUCAAGG ... 0.668 R (bound/input frequency ratio)
ENSMUSG00000028439.140|Fam219a (ssRNA) RNA: GGGAGUUCUACAGUCCGACGAUCGCUUCGAUAUCCGCAUGCUAUCAUCCCCACACCGCCCUGCCACCCCCAGUCUUCUGUCUAUUGGUUCCAGGCUGGAAGCAAGAGAUAAGGCUGGCCUCCUGUGCCCCAUUGCCAUUUCACCCUAGCUCAAAGUCCAGGAGCCAGGCUUCCAGAAAGGCUCUUCAAGAGCAAGCUUAAGGAAAUACAGUGAGCCAAGUGGCUGUAUGAUAUGGUAUGGUAUGGUAUGGUAUGGUAUGGUAUGGUAUGCACAUGUGUGUGCAUGUGUGUGUGCCUGUGUGUGCUCUUGCGGUCGCACUAGUGUGGAAUUCUCGGGUGUCAAGG ... 2.02 R (bound/input frequency ratio)
ENSMUSG00000029028.64|Lrrc47 (ssRNA) RNA: GGGAGUUCUACAGUCCGACGAUCGCUUCGAUAUCCGCAUGCUAUGGGUAUGCUGUAGAUGUCUGUGUAGGUGUGGAUAUGCUGUAGGUAUCUGGGUGUGCUGUAGGUGUCUGUGUGGGUGUGGGUGUGCUGUGGGUGUCUGUGUGGGUGUGCUGUAGGUGUCUGUAGGUGUGGGUAUGCUGCAGGUGUGGGUGUGCUGUAGAUCUCUAUAGGUGUGGGUGUGCUGUAGGGGUCUGUGUGGGUAUAGGUGUGGGUGUGCUGUAGAUUCUGUGUAACUGGUUCUUUGCUGUUUCUCUGGGUGUUUCUCUUGCGGUCGCACUAGUGUGGAAUUCUCGGGUGUCAAGG ... 5.28 R (bound/input frequency ratio)
ENSMUSG00000028439.141|Fam219a (ssRNA) RNA: GGGAGUUCUACAGUCCGACGAUCGCUUCGAUAUCCGCAUGCUACCACACCGCCCUGCCACCCCCAGUCUUCUGUCUAUUGGUUCCAGGCUGGAAGCAAGAGAUAAGGCUGGCCUCCUGUGCCCCAUUGCCAUUUCACCCUAGCUCAAAGUCCAGGAGCCAGGCUUCCAGAAAGGCUCUUCAAGAGCAAGCUUAAGGAAAUACAGUGAGCCAAGUGGCUGUAUGAUAUGGUAUGGUAUGGUAUGGUAUGGUAUGGUAUGGUAUGCACAUGUGUGUGCAUGUGUGUGUGCCUGUGUGUGUGCGUGCUCUUGCGGUCGCACUAGUGUGGAAUUCUCGGGUGUCAAGG ... 3.58 R (bound/input frequency ratio)
